test: Tissue distribution study in rats; type: in vivo, Sprague-Dawley rats; conditions: female, Sprague-Dawley, rat, oral; spleen; time 0.5; i.g. 10 mg/kg IMMH-010 maleate; read-out: T/P (tissue-to-plasma partition)
experimental-readout: Kp at 0.5 h
Please reply with the number alone, leaving off any unit.

INSERT INTO results (compound, experimental_readout, recorded_result) VALUES
  ('O=C(O)[C@H](CO)NCc1cc(Cl)c(OCc2cccc(-c3ccccc3)c2Br)cc1OCc1cccnc1 [YPD-29B]', 'Kp at 0.5 h', 0.9);

The compound CC(C)OC(=O)C(CO)NCc1cc(Cl)c(OCc2cccc(-c3ccccc3)c2Br)cc1OCc1cccnc1 (centres unmarked) showed Kp at 0.5 h equal to 2
